Test system: ACHN renal
Experiment: NCI-60 one-dose screen, 48 h (100 = growth as untreated, 0 = no growth, -100 = all killed)
Settings: 10 µM unless noted
Compounds without any hit were thinned out: in the full panel of roughly 83,000, 20% have a hit.
QUANTITY NAME: growth (%)
Give bare numbers, in %.

Solved entries (count: 2):
{"COMPOUND": "C=C1C(=O)O[C@H]2[C@H]1CC/C(COC(=O)/C=C\\C(=O)NCc1ccc(Cn3c(=O)sn(CCCI)c3=O)cc1)=C\\CC[C@@]1(C)O[C@@H]21", "growth, %": -100}
{"COMPOUND": "COc1ccc(C2CC(c3ccc4ccccc4c3)=NN2c2nc(O)c(C3=c4cc(Cl)ccc4=NC3=O)s2)cc1 (centres undefined)", "growth, %": -63.8}

Consider the following items and state reported growth for each.
1. CC(C)(C)c1ccc(C(=O)Nc2sc3c(c2C(N)=O)CCC(=O)C3)cc1
2. Cc1ccc(O)c(C(=O)c2ccccc2Cl)c1
3. CC(=O)Nc1ccc2c(c1)Cc1c(F)cccc1-2
4. CCCCCCCC/C=C\CCCCCCCC(=O)Oc1cccc2cccnc12

Solution:
1: -98.6; 2: 94.8; 3: 93; 4: 103

Return reported growth values for all items listed beneath this line.
1. O=C(O)C1C[C@](O)(c2ccc(F)cc2)[C@@H](c2ccc(F)cc2)O1 (some centres undefined)
2. CC1(C)N=C(N)N=C(N)N1c1ccc(Cl)c(Cl)c1
3. COC(=O)CNC(=O)C(=O)c1c(O)c(O)c(C(C)C)c2cc(C)c(-c3c(C)cc4c(C(C)C)c(O)c(O)c(C(=O)C(=O)NCC(=O)OC)c4c3O)c(O)c12

Solution:
1. 116
2. 28.4
3. 3.33

Report growth for every entry below.
1. Cn1cc(Nc2nccc(-c3ccc(N4CCCC4)c(C#N)c3)n2)cn1
2. CN1CCC(=C2c3ccccc3C=Cc3ccccc32)CC1
3. COc1ccccc1NC(=O)Nc1ccc(-c2nc3ccccc3o2)cc1
4. O=C(CC12CC3CC(CC(C3)C1)C2)NCCOCCOCCOCCNC(=O)c1cc2c(o1)C(=O)c1ccccc1C2=O

Solution:
[26.7, 84.4, 95.4, -22.4]

Fill in growth for each of the 4 compounds listed.
1. O=C(Oc1ccc([N+](=O)[O-])cc1)c1ccc(CBr)cc1
2. CCCN1CCN(c2ccc3nc(-c4ccc5nc(-c6ccc(OCC)c(OCC)c6)[nH]c5c4)[nH]c3c2)CC1
3. O=S(=O)(NCCNc1cc(-c2c(-c3cccc(O)c3)nc3sccn23)ccn1)c1ccc(Br)cc1
4. O=C1C=CC(=Nc2cc(Br)c(O)c(Br)c2)C=C1

Solution:
1. 95.2
2. -28.9
3. 56.7
4. 68.4

Give growth for each of the items listed below.
1. CCN1CCN(c2ccc(Nc3cc(-c4cccnc4Nc4c(Cl)c(OC)cc(OC)c4Cl)ncn3)cc2)CC1
2. CC(/C=N/NC(=O)c1cc(-c2ccco2)[nH]n1)=C\c1ccccc1

Solution:
1: 42.6; 2: 93.1

###

Tested on: HOP-92 NSCLC
Experiment: NCI-60 one-dose screen, 48 h (100 = growth as untreated, 0 = no growth, -100 = all killed)
Conditions: 10 µM unless noted
Compounds without any hit were thinned out: in the full panel of roughly 83,000, 20% have a hit. Calls of active or inactive are those of the source. Rule for the calls: active = growth percent below 10; inactive = the rest.
QUANTITY NAME: growth

{"COMPOUND": "N#Cc1cnn2c(-c3ccc(Cl)cc3)nc(NCCc3ccccc3)nc12", "growth": "92.6% (inactive)"}
{"COMPOUND": "CNC1(C#N)CCN(Cc2ccccc2)CC1", "growth": "85.1% (inactive)"}
{"COMPOUND": "CCN(CC)CCOC(=O)Nc1ccccc1Cl", "growth": "82% (inactive)"}

Field: growth. Fill in for each record below.
1. CCn1c(Sc2nnc(NC(=O)CCN3CCCC3)s2)nc2c1c(=O)n(C)c(=O)n2C
2. O=C1NN(C(=O)c2ccc(O)cc2)C(c2ccccc2)=N/C1=C\c1cn(-c2ccccc2)nc1-c1ccccc1
3. O=C(/C=C/C12c3ccccc3C(c3ccccc31)C1C(=O)N(c3ccc(Cl)cc3)C(=O)C12)c1ccccn1 (stereo not drawn)
4. O=[N+]([O-])c1ccccc1C(O)Cc1ccc2ccccc2n1 (stereo not drawn)
5. Nc1nc(N)c(-c2ccc(Cl)cc2)c(/C=C/c2ccc([N+](=O)[O-])cc2)n1

Solution:
["107% (inactive)", "94.9% (inactive)", "-53.7% (active)", "77.5% (inactive)", "76.1% (inactive)"]

###

Tested on: KM12 colon
Test: NCI-60 one-dose screen, 48 h (100 = growth as untreated, 0 = no growth, -100 = all killed)
Details: 10 µM unless noted
About 83,000 compounds went through this panel and 20% of them were active in at least one assay; those are over-represented in the sample as a whole.
Kindly supply the reported growth values for the records listed here.
Answers are plain numbers, in %.

{"SMILES CODE": "O=C1Nc2ccc(Cl)cc2/C1=N/N=C/c1c[nH]c2ccccc12", "UNIT DESCRIPTOR": "%", "growth": 68.1}
{"SMILES CODE": "CCOc1cc(N)ccc1C(=O)NCCCN(CC)CC", "UNIT DESCRIPTOR": "%", "growth": 106}
{"SMILES CODE": "Nc1c(-c2nc3ccc(Br)cc3c(=O)[nH]2)nnn1-c1ccccc1", "UNIT DESCRIPTOR": "%", "growth": 61.6}

Field: next compound
Exercise: Report growth for CC(=O)NCC(=O)Nc1ccc(-c2nnc3ccccn23)nc1.CC(=O)NCC(=O)Nc1ccc(-c2nnc3ccccn23)nc1.[Pt+2] please.
Solution: 109

###

System: U251 CNS
Experiment: NCI-60 one-dose screen, 48 h
Settings: 10 µM unless noted
About 83,000 compounds went through this panel and 20% of them were active in at least one assay; those are over-represented in the sample as a whole. Activity calls are given as the source filed them. Rule for the calls: active = growth percent below 10; inactive = the rest.
Respond with a class label; see active, inactive

{"COMPOUND": "CC(=O)c1cc2c(o1)C(=O)c1ccccc1C2=O", "LABEL CLASS": "active"}

Exercise: Write down the call the test reported for this compound. Item: Cc1cnc(Nc2ccc(OCCN3CCCC3)cc2)nc1NCc1ccco1
Solution: inactive

Exercise: Test call, this compound: Cc1nc(Nc2ccc(S(=O)(=O)Nc3cc(C)on3)cc2)c2ccccc2n1
Solution: inactive

###

Test system: OVCAR-4 ovarian
Test: NCI-60 one-dose screen, 48 h (100 = growth as untreated, 0 = no growth, -100 = all killed)
Conditions: 10 µM unless noted
About 83,000 compounds went through this panel and 20% of them were active in at least one assay; those are over-represented in the sample as a whole.
Outcome: class 1 for growth of at least 90%; class 0 for anything lower.

// below: answered compounds
{"COMPOUND": "Nc1ccc2c(S(=O)(=O)O)ccc(S(=O)(=O)O)c2c1", "SYSTEM": "OVCAR-4 ovarian", "LABEL CLASS": "class 1"}
{"COMPOUND": "O=C1Nc2ccc(Cl)cc2/C1=N/N=C/c1c[nH]c2ccccc12", "SYSTEM": "OVCAR-4 ovarian", "LABEL CLASS": "class 0"}
{"COMPOUND": "CC1(C)N=C(N)N=C(N)N1c1ccc(Cl)c(Cl)c1", "SYSTEM": "OVCAR-4 ovarian", "LABEL CLASS": "class 0"}

Exercise: Form field: growth at least 90%? Entry: N[C@H]1CCC[C@@H]1NCCCCN1C(=O)c2cccc3cccc(c23)C1=O
Solution: class 0

Exercise: Check the entry CN1C(=O)CCC(N2C(=O)c3cccc(NCCOCCOCCNC(=O)c4cc5c(o4)C(=O)c4ccccc4C5=O)c3C2=O)C1=O (configuration not stated) : does growth equal or exceed 90%?
Solution: class 0

Exercise: Textbook exercise: given the entry Cc1nc2ccc(C(=O)NCc3cc(C(=O)O)c(C)o3)cc2nc1C , state whether its growth is greater than or equal to 90%.
Solution: class 1

Exercise: Hi team, for CNC1(C#N)CCN(Cc2ccccc2)CC1 , is the recorded growth at or above 90%?
Solution: class 1

Exercise: Could you tell me if the measured growth of Cc1c(C(=O)O[C@H]2[C@@H]3[C@H](C)CC[C@H]3[C@]3(C)O[C@@]2(C2CCCCC2)C[C@H]3OC(=O)CO)ccc2ccccc12 reaches 90% or more?
Solution: class 0

Exercise: Test whether the compound COc1cc(C(=O)Nc2cc(O)c(CC=C(C)C)c(O)c2)cc2c1O[C@]1(C)CC[C@@H](O)C(C)(C)[C@H]1C2 records growth of 90% or higher.
Solution: class 0

Exercise: Answer whether growth of CCOC(=O)C(=CNc1ccccc1[N+](=O)[O-])C(=O)OCC is greater than or equal to 90%.
Solution: class 1

Exercise: State whether the measured growth reaches 90%, counting equality as reaching it, for CC(C)(C)c1ccc(C(=O)Nc2sc3c(c2C(N)=O)CCC(=O)C3)cc1
Solution: class 0

Exercise: In plain terms: is recorded growth at least 90% for CCCCn1c(=O)[nH]c(N)c(C(c2ccc(F)cc2)c2c(N)[nH]c(=O)n(CCCC)c2=O)c1=O ?
Solution: class 0

Exercise: Evaluate COc1ccc(OC)c(Nc2nc3nonc3nc2Nc2cccc(Br)c2)c1 : growth at minimum 90%?
Solution: class 0

Exercise: Could you tell me if the measured growth of COc1ccc(OC)c(/C=C2\COc3ccc(O)cc3C2=O)c1 reaches 90% or more?
Solution: class 1

Exercise: Decide: is the reported value of growth for COc1ccc2c(c1)/C(=C\c1sc(=S)[nH]c1O)C(C(=O)O)=N2 equal to or greater than 90%?
Solution: class 1

Exercise: Check the entry Nc1nc(I)c2ncn(C3OC(CO)C(O)C3O)c2n1 (configuration not stated) : does growth equal or exceed 90%?
Solution: class 1

Exercise: Determine whether measured growth meets or exceeds 90% for COc1ccc(/C=C2\COc3ccc(O)cc3C2=O)c(OC)c1
Solution: class 1

Exercise: Answer whether growth of NC(=O)CC1(O)C=C(Br)C(=O)C(Br)=C1 is greater than or equal to 90%.
Solution: class 0

Exercise: Does the reported growth for Cn1cc(Nc2nccc(-c3ccc(N4CCCC4)c(C#N)c3)n2)cn1 fall at or above the 90% mark?
Solution: class 0

Exercise: Reported growth reaches at least 90% for CO/C(=C1/NC(=O)C(Cc2ccc(O)c(Br)c2)N(C)C(=O)C(C)NC(=O)CCC/C=C(\C)CCC(C)OC1=O)c1ccccc1 (configuration not stated) ?
Solution: class 0
